TGI values, listed per item
- Tested on: IGROV1 ovarian
- Assay Text: NCI tumour cell line growth inhibition, 48 h

Please review the entries below; each comes with its answer.
Molecule	TGI
OC12c3ccccc3C1CCCCCCCCCC21OCCCO1 (configuration not stated)	> 100 µM
O=C1c2[nH]cc(CN[C@@H]3CCCN3)c2C(=O)c2c1c(O)c1ccccc1c2O	1.02 µM
Cc1nc(C)c(N2CCN(C(=O)NC(CCC(=O)O)C(=O)O)CC2)c(=O)[nH]1 (configuration not stated)	> 100 µM
O=P(Oc1ccccc1)(Oc1ccccc1)C(O)c1ccccc1 (configuration not stated)	> 100 µM

Given the molecule `O=C(/C=C/c1ccsc1)c1cccs1` and test system IGROV1 ovarian, the measured TGI is > 100 µM

Given the molecule `CC(=O)O[C@H]1CC[C@@]2(C)C(=CC[C@H]3[C@@H]4C[C@H](N5CCN(C)CC5)[C@H](OC(C)=O)[C@@]4(C)CC[C@@H]32)C1` and test system IGROV1 ovarian, the measured TGI is 37.9 µM

Given the molecule O=C1C2c3[nH]c4ccccc4c3C3CCSCC3C2C(=O)N1c1ccccc1 (configuration not stated) and test system IGROV1 ovarian, the measured TGI is > 100 µM

Given the molecule CC1=C2C(=CC(C)(CO)C2O)C(=O)C(C)(O)C12CC2 (configuration not stated) and test system IGROV1 ovarian, the measured TGI is 0.106 µM

Given the molecule `Cc1cc(N(CCC#N)CCC#N)ccc1N=Nc1ccccc1[N+](=O)[O-]` and test system IGROV1 ovarian, the measured TGI is > 100 µM

Given the molecule `c1ccc2nc3c(nc2c1)sc1nc2ccccc2n13` and test system IGROV1 ovarian, the measured TGI is > 100 µM

###

- System: RXF 393 renal
- Assay Text: NCI tumour cell line growth inhibition, 48 h
Property Label: TGI

Given the molecule `CN(O)C(=O)c1ccc(OCc2cccc(Cl)c2)cc1` and test system RXF 393 renal, the measured TGI is > 100 µM

Given the molecule `CC(C)(C)c1ccc(Oc2ccc(C#N)c(C#N)c2)c(C(C)(C)C)c1` and test system RXF 393 renal, the measured TGI is > 95.7 µM

Given the molecule `CCCCCCCCCCCCOCCCCCCCCC/C=C/c1ccc2c(c1)OCCOCCOCCOCCO2` and test system RXF 393 renal, the measured TGI is 36.4 µM

Given the molecule `COc1cc(/C=C2\N=C(c3ccccc3)N(c3ccc(S(=O)(=O)Nc4nccs4)cc3)C2=O)ccc1O` and test system RXF 393 renal, the measured TGI is > 100 µM

Given the molecule `Cc1c2cc[n+](C)cc2c(C)c2c1[nH]c1ccc(OC(C)C)cc12` and test system RXF 393 renal, the measured TGI is > 100 µM

Given the molecule Cc1cccc2c1CC(C1OC(=O)c3c(C)cccc31)C2=O (stereo not drawn) and test system RXF 393 renal, the measured TGI is > 100 µM

Given the molecule `O=C(c1ccccc1)c1ccc2cccc(O)c2n1` and test system RXF 393 renal, the measured TGI is 69 µM

Given the molecule `O=C(O)CSCC(=O)c1ccccc1` and test system RXF 393 renal, the measured TGI is > 100 µM

Given the molecule `CCN(Cc1ccc(F)cc1F)c1ccc(CO)c(Cl)c1` and test system RXF 393 renal, the measured TGI is 14.5 µM

Given the molecule `Clc1ccc(N2COOC3(OOC2)C2CC4CC(C2)CC3C4)cc1` and test system RXF 393 renal, the measured TGI is > 59.3 µM

Given the molecule CC1=C(C(=O)Nc2ccc(F)c(Cl)c2)C(c2cccc(O)c2)NC(=S)N1 (stereo not drawn) and test system RXF 393 renal, the measured TGI is 30.5 µM

Given the molecule `COC1=C(OC)C(=O)c2cc(SC)c(=O)c(SC)cc2C1=O` and test system RXF 393 renal, the measured TGI is 16.8 µM

Given the molecule CC1=CCP(C(F)(F)F)P(C(F)(F)F)C1 (stereo not drawn) and test system RXF 393 renal, the measured TGI is 58.3 µM

Given the molecule `O=C(O)C(Cc1ccccc1-c1ccccc1)C(=O)O` and test system RXF 393 renal, the measured TGI is > 100 µM

Cited source for all entries: PubChem BioAssay (NCI)
